Reference for the values: ChEMBL document CHEMBL4184104

testedOn: Isocitrate dehydrogenase [NADP] cytoplasmic (Homo sapiens, UniProt O75874, R132H)
Sequence (O75874 2-414 R132H limits assumed): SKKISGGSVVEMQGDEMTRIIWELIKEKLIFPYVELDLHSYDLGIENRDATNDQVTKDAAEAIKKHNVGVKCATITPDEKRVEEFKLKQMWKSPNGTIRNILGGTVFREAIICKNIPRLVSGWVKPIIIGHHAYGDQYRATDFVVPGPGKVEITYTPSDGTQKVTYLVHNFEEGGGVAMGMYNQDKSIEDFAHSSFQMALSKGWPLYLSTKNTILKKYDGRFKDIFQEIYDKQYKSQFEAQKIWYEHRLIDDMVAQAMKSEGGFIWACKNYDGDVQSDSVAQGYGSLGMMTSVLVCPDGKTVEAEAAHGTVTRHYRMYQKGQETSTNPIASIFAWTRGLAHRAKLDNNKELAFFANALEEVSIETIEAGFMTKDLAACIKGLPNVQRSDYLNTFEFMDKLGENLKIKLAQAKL
methodDescription: Inhibition of IDH1 R132H mutant (unknown origin) expressed in HEK293T cells assessed as reduction in D2-HG level after 30 mins by resazurin-based fluorescence assay
quantityMeasured: pIC50
# pIC50 = -log10(concentration in molar units)

Challenge: I'd like to know its pIC50. The compound in question is COC(=O)C1C(=O)C2=C(CC1C)Nc1ccccc1NC2c1c[nH]c2ccccc12 (stereo unspecified)
Response given: 4.30

---

Tested on: Isocitrate dehydrogenase [NADP] cytoplasmic (Homo sapiens), O75874 [R132C]
Sequence (O75874 whole entry R132C): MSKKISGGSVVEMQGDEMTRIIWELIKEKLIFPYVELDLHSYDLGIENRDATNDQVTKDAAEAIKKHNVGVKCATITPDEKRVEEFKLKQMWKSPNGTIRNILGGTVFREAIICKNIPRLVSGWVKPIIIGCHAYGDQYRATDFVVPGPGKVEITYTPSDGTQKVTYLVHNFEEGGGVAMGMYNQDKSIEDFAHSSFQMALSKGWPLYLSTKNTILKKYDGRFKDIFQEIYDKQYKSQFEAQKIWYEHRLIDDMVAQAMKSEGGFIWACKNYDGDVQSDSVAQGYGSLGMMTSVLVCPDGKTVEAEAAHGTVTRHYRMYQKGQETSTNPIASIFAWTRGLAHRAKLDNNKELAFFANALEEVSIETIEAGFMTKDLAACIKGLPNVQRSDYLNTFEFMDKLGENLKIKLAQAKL
methodDescription: Inhibition of IDH1 R132C mutant (unknown origin) expressed in HEK293T cells assessed as D2-HG level at 10 uM after 72 hrs relative to control
Type: cell-based
assayContext: values are per cent of control
quantityMeasured: response, % of control (%)
Lab book: enter the figure in %, no units written.

Challenge: Report response, % of control for "CC(C)CCOc1cccc(C(=O)Nc2ccc(C(=O)Nc3cccc4ccccc34)cc2)c1" tested on Isocitrate dehydrogenase [NADP] cytoplasmic (Homo sapiens), O75874 [R132C].
Response given: 48.4

Challenge: Report response, % of control for CC(O)c1cccc(NC(=O)c2cnn3c2NC(c2ccccc2)CC3C(F)(F)F)c1 (configuration not stated) tested on Isocitrate dehydrogenase [NADP] cytoplasmic (Homo sapiens), O75874 [R132C].
Response given: 79.3

Challenge: Report response, % of control for "COc1cccc(C(=O)Nc2cccc(OCC(=O)c3ccccc3)c2)c1" tested on Isocitrate dehydrogenase [NADP] cytoplasmic (Homo sapiens), O75874 [R132C].
Response given: 138

Challenge: Report response, % of control for "COC(=O)c1ccccc1NC(=O)CNCn1cnc2ccccc21" tested on Isocitrate dehydrogenase [NADP] cytoplasmic (Homo sapiens), O75874 [R132C].
Response given: 86.1

Challenge: Report response, % of control for "O=C(Nc1cccc(NC(=O)c2cccc(S(=O)(=O)N3CCCCC3)c2)c1)c1ccc(Br)cc1" tested on Isocitrate dehydrogenase [NADP] cytoplasmic (Homo sapiens), O75874 [R132C].
Response given: 61.1

Challenge: Report response, % of control for "COc1ccccc1NC(=O)c1c(NCc2cccnc2)sc2c1CC[C@H](C)C2" tested on Isocitrate dehydrogenase [NADP] cytoplasmic (Homo sapiens), O75874 [R132C].
Response given: 123

Challenge: Report response, % of control for Cc1ccccc1C(C(=O)NC1CCCCC1)N(C(=O)Cn1ccnc1C)c1cccc(F)c1 (configuration not stated) tested on Isocitrate dehydrogenase [NADP] cytoplasmic (Homo sapiens), O75874 [R132C].
Response given: 13.3

---

Test system: Isocitrate dehydrogenase [NADP] cytoplasmic (Homo sapiens), O75874 [R132C]
methodDescription: Inhibition of IDH1 R132C mutant (unknown origin) expressed in HEK293T cells assessed as D2-HG level at 50 uM after 72 hrs relative to control
Type: cell-based
assayContext: values are per cent of control
response, % of control less than 50% is rule met; response, % of control greater than or equal to 50% is rule not met.

Challenge: Is response, % of control of Cc1ccccc1C(C(=O)NC1CCCCC1)N(C(=O)Cn1ccnc1C)c1cccc(F)c1 (stereo not drawn) strictly below 50%?
Response given: rule met

Challenge: Is response, % of control of "O=C(Nc1cccc(NC(=O)c2cccc(S(=O)(=O)N3CCCCC3)c2)c1)c1ccc(Br)cc1" strictly below 50%?
Response given: rule not met

Challenge: Is response, % of control of "COc1ccccc1NC(=O)c1c(NCc2cccnc2)sc2c1CC[C@H](C)C2" strictly below 50%?
Response given: rule met

Challenge: Is response, % of control of CC(O)c1cccc(NC(=O)c2cnn3c2NC(c2ccccc2)CC3C(F)(F)F)c1 (stereo not drawn) strictly below 50%?
Response given: rule met

Challenge: Is response, % of control of "COc1cccc(C(=O)Nc2cccc(OCC(=O)c3ccccc3)c2)c1" strictly below 50%?
Response given: rule not met

Challenge: Is response, % of control of "Cc1ccc(NC(=O)c2cc([N+](=O)[O-])cc3c2-c2ccc([N+](=O)[O-])cc2C3=O)cc1" strictly below 50%?
Response given: rule not met

Challenge: Is response, % of control of "CC(C)CCOc1cccc(C(=O)Nc2ccc(C(=O)Nc3cccc4ccccc34)cc2)c1" strictly below 50%?
Response given: rule met

---

methodDescription: Effective permeability of the compound at 25 ug/ml after 18 hrs by BBB-PAMPA method
Format: ADME
assayContext: read-out: Peff
quantityMeasured: Papp at 18 h, 25 ug/ml (×10⁻⁶ cm/s)
Lab book: enter the figure in ×10⁻⁶ cm/s, no units written.

Challenge: I'd like to know its Papp at 18 h, 25 ug/ml. The molecule in question is "CC(C)CCOc1cccc(C(=O)Nc2ccc(C(=O)Nc3cccc4ccccc34)cc2)c1"
Response given: 8.15

---

methodDescription: Cytotoxicity against HEK293T cells harboring pMXs-IDH1wt-IRES-BsdRs assessed as cell survival at 50 uM after 72 hrs by CellTiterGlo assay relative to control
Type: cell-based, HEK-293T
assayContext: human, HEK293T cells harboring pMXs-IDH1wt-IRES-BsdRs; read-out: Survival
quantityMeasured: viability at 72 h, 50 µM (%)
Lab book: enter the figure in %, no units written.

Challenge: I'd like to know its viability at 72 h, 50 µM. The compound in question is "CC(C)CCOc1cccc(C(=O)Nc2ccc(C(=O)Nc3cccc4ccccc34)cc2)c1"
Response given: 88.6

---

Test system: Isocitrate dehydrogenase [NADP] cytoplasmic (Homo sapiens), O75874 [R132H]
Sequence (O75874 whole entry R132H): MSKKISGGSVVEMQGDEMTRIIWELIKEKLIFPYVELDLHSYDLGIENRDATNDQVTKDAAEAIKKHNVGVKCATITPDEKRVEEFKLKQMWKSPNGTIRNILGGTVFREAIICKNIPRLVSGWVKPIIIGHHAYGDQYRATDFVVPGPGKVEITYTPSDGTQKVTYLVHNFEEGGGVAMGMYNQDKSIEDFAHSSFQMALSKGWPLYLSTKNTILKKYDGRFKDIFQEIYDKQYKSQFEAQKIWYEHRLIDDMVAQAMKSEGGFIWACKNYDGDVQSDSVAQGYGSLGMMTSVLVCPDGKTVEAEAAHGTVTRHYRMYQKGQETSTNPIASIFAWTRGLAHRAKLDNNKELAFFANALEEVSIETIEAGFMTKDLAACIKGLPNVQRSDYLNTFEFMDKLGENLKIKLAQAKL
methodDescription: Inhibition of IDH1 R132H mutant (unknown origin) expressed in HEK293T cells assessed as D2-HG level at 10 uM after 72 hrs relative to control
Format: cell-based
assayContext: values are per cent of control
response, % of control less than 90% is class 1; response, % of control greater than or equal to 90% is class 0.

Challenge: Is response, % of control of "COc1ccccc1NC(=O)c1c(NCc2cccnc2)sc2c1CC[C@H](C)C2" strictly below 90%?
Response given: class 0

Challenge: Is response, % of control of "O=C(Nc1cccc(NC(=O)c2cccc(S(=O)(=O)N3CCCCC3)c2)c1)c1ccc(Br)cc1" strictly below 90%?
Response given: class 1

Challenge: Is response, % of control of Cc1ccccc1C(C(=O)NC1CCCCC1)N(C(=O)Cn1ccnc1C)c1cccc(F)c1 (stereo not drawn) strictly below 90%?
Response given: class 1

Challenge: Is response, % of control of "COC(=O)c1ccccc1NC(=O)CNCn1cnc2ccccc21" strictly below 90%?
Response given: class 1

Challenge: Is response, % of control of "Cc1ccc(NC(=O)c2cc([N+](=O)[O-])cc3c2-c2ccc([N+](=O)[O-])cc2C3=O)cc1" strictly below 90%?
Response given: class 0

Challenge: Is response, % of control of "COc1cccc(C(=O)Nc2cccc(OCC(=O)c3ccccc3)c2)c1" strictly below 90%?
Response given: class 0

Challenge: Is response, % of control of "CC(C)CCOc1cccc(C(=O)Nc2ccc(C(=O)Nc3cccc4ccccc34)cc2)c1" strictly below 90%?
Response given: class 1
